Where melting point equals or exceeds 200 °C, the correct label is 1 (yes); where it does not, the label is 0 (no).

Consider the following illustrative entries.
{"columns": ["Compound", "Cat"],
 "data": [
  ["FC(F)(F)C(F)(F)C(F)(F)C(F)(F)C(F)(F)C(F)(F)C(F)(F)C(F)(F)CCI", "0 (no)"],
  ["COC(=O)c1ccccc1CS(=O)(=O)NC(=O)Nc1nc(OC)cc(OC)n1", "0 (no)"],
  ["NCCCC1C=NNC1=O (stereo unspecified)", "1 (yes)"]
]}

Is it the case that CCCCCCCc1ccc(C(=O)O)cc1 has melting point reaching or exceeding 200 °C? 0 (no)

Is it the case that Cc1c(N)cccc1N has melting point reaching or exceeding 200 °C? 0 (no)

Is it the case that O=C(CCCCl)c1ccc(O)cc1 has melting point reaching or exceeding 200 °C? 0 (no)

Is it the case that CCCCC(CC)CO[N+](=O)[O-] (stereo unspecified) has melting point reaching or exceeding 200 °C? 0 (no)

Is it the case that Nc1cc(F)c(F)c(F)c1F has melting point reaching or exceeding 200 °C? 0 (no)

Is it the case that COC(=O)C(c1ccccc1Cl)N1CCc2sccc2C1 (stereo unspecified) has melting point reaching or exceeding 200 °C? 0 (no)

Is it the case that Nc1nc(S)nc(S)n1 has melting point reaching or exceeding 200 °C? 1 (yes)

Is it the case that CC1(C)C2CCC1(C)C(NC(=O)c1ccccc1)C2NC(=O)c1ccccc1 (stereo unspecified) has melting point reaching or exceeding 200 °C? 0 (no)

Is it the case that COc1ccc2nc(Cl)c(CO)cc2c1 has melting point reaching or exceeding 200 °C? 0 (no)

Is it the case that O=C(O)C(c1ccc(Cl)cc1)c1ccc(Cl)cc1 has melting point reaching or exceeding 200 °C? 0 (no)

====

Endpoint label: melting point (°C)
# unit: °C | format: bare number

Recorded results for 2 molecules are shown here.
{"columns": ["Molecule", "melting point (°C)"],
 "data": [
  ["C=C1CCCCC1", -107],
  ["CNC(=O)c1cc(C)cc(Cl)c1NC(=O)c1cc(Br)nn1-c1ncccc1Cl", 209]
]}

# melting point of CCCCCC1C(=O)CCC1CC(=O)OC (configuration not stated) = -10

# melting point of BrC1Cc2ccccc2C1Br (configuration not stated) = 32

# melting point of CCOC(=O)c1cc(C)n(CO)n1 = 71

# melting point of O=C(c1ccccc1)C(c1ccccc1)c1cc(Cl)c([N+](=O)[O-])cc1[N+](=O)[O-] (configuration not stated) = 131

# melting point of C#Cc1ccc(Br)cc1 = 66

# melting point of C#CC1(O)CCC2C3CCc4cc(OC)ccc4C3CCC21C (configuration not stated) = 150

# melting point of N#Cc1ccc(C(Cl)=Cc2cccc(C=C(Cl)c3ccc(C#N)cc3[N+](=O)[O-])c2)c([N+](=O)[O-])c1 = 268

# melting point of Oc1cc(C(F)(F)F)nc2cc(Cl)ccc12 = 280

# melting point of CC1(C(=O)O)CCC(C(Br)C(Br)c2ccccc2)C1(C)C (configuration not stated) = 161

# melting point of CC(=O)c1cc(C)c(Br)cc1O = 88

====

Measured melting point, listed per entry for reference.
# unit: °C | format: bare number

Recorded results for 4 compounds are shown here.
{"columns": ["Entry smiles", "Value unit", "melting point"],
 "data": [
  ["CC(C)c1cc(Br)c(N)c(Br)c1", "°C", 46],
  ["CC(=O)Nc1c(Cl)cccc1Cl", "°C", 181],
  ["N#Cc1c(Cl)cccc1[N+](=O)[O-]", "°C", 121],
  ["Cc1cccc2ncccc12", "°C", 19]
]}

# melting point of CC(C)(C)c1ccc(C(C)(C)C)cc1 = 79.5

# melting point of CCOc1ccc2cc(O)c(O)cc2c1 = 132

# melting point of COc1cc(CCO)ccc1O = 41
